Just for reference, PubChem BioAssay (NCI) is where these values come from.

Test system: HL-60(TB) leukemia
Experiment: NCI tumour cell line growth inhibition, 48 h
Reported TGI values for a set of molecules

Worked examples follow.
- molecule: "O=C(O)CCCc1ccc2ccccc2c1"
  TGI: "> 100 µM"
- molecule: "O=C1C(Cl)N(c2cccc([N+](=O)[O-])c2)C1c1c[nH]c2ccccc12 (stereo not drawn)"
  TGI: "> 100 µM"

Turning to the following molecule.
Data request: Find TGI for C=C(C(=C)P(=S)(c1ccccc1)c1ccccc1)P(=S)(c1ccccc1)c1ccccc1 on HL-60(TB) leukemia and write it down.
Data returned: > 100 µM

* * *

System: HCT-116 colon
Assay: NCI tumour cell line growth inhibition, 48 h
Reported TGI values for a set of molecules

Worked examples follow.
- molecule: "O=C1c2cc([N+](=O)[O-])ccc2-c2ccc3c4ccc5c6c(ccc(c7ccc1c2c73)c64)C(=O)c1cc([N+](=O)[O-])ccc1-5"
  measurement name: "TGI"
  readout value: "> 100 µM"
- molecule: "OCCN1CCN2C=C(C3CCCC4N(CCO)CCN34)CCC21 (stereo unspecified)"
  measurement name: "TGI"
  readout value: "> 87.2 µM"
- molecule: "Cn1cc(C2=C(c3cn(C)c4ccccc34)C(=O)NC2=O)c2ccccc21"
  measurement name: "TGI"
  readout value: "> 25 µM"
- molecule: "COc1ccc(C2C(C)C(=O)C(C)C(c3ccc(OC)cc3)N2N=O)cc1 (stereo unspecified)"
  measurement name: "TGI"
  readout value: "455 µM"
- molecule: "Nc1nc2c(ncn2Cc2ccccc2CO)c(=O)[nH]1"
  measurement name: "TGI"
  readout value: "> 100 µM"

Data request: Return reported TGI. Input molecule: O=C1CSC(c2c[nH]c3ccccc23)N1c1ccccc1[N+](=O)[O-] (stereo unspecified)
Data returned: > 100 µM

Data request: Return reported TGI. Input molecule: CSC12c3cc(C)n(-c4ccccc4)c3CC(C)(C)CN1C(=O)C2Oc1ccccc1 (stereo unspecified)
Data returned: > 100 µM

Data request: Return reported TGI. Input molecule: COC1(O)c2cccc(Cl)c2C(=O)N1C1(C(N)=O)CCCCC1 (stereo unspecified)
Data returned: > 100 µM

Data request: Return reported TGI. Input molecule: O=C(CNC(c1ccccc1)(c1ccccc1)c1ccccc1)NC1CCCCC1NC(=O)CNC(c1ccccc1)(c1ccccc1)c1ccccc1 (stereo unspecified)
Data returned: > 100 µM

Data request: Return reported TGI. Input molecule: CCOc1cc2oc(C)cc(=O)c2c(OC)c1C=Nc1ccc(Cn2c(C)nc3ccccc32)cc1
Data returned: > 100 µM

Data request: Return reported TGI. Input molecule: CCOC(=O)c1[nH]cc(C)c1-c1ccc2c(-c3ccccc3)nc3ccccc3n12
Data returned: 12.5 µM
